Target: UniProtKB O28625
Sequence (O28625 1-303): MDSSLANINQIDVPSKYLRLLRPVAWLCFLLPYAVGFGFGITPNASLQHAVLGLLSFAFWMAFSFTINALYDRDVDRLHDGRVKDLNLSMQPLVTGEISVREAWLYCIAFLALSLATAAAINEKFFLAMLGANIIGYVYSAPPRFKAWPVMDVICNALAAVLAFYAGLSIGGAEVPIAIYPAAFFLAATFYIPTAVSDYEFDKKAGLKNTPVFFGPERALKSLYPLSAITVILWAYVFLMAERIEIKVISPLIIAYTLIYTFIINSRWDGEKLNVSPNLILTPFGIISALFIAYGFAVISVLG
value.kind: pKd
Convention used: pKd is expressed as -log10 of the molar concentration.

Task: Record request: pKd value, item CC(C)=CCC/C(C)=C/COP(=O)(O)OP(=O)(O)O [geranyl diphosphate]
Result: 5.49
